Target: T1, mouse Claudin-6 (CLDN6) (mouse, UniProt Q9Z262 1-219)
T1 construct: whole, on cells; GFP fusion on engineered HEK293T cells; also called Mouse CLDN6; murine CLDN6
T1 sequence (looked up): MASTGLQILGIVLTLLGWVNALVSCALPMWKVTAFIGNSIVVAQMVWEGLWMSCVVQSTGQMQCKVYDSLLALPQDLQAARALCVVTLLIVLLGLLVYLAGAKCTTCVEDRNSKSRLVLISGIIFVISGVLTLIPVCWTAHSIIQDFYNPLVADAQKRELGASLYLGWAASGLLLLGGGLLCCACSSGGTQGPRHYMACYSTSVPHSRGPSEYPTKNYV
Experiment: FACS, 293T clone expressing mouse CLDN6, dose not stated (2nd Ab only 1061.72)
ASSAY_ENDPOINT: FACS fluorescence
Numbers only.

AB1-5 (antibody, V domains shown, humanized) VH: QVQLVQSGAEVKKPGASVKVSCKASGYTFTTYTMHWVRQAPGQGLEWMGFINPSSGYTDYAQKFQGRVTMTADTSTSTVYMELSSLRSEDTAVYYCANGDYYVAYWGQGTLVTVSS VL: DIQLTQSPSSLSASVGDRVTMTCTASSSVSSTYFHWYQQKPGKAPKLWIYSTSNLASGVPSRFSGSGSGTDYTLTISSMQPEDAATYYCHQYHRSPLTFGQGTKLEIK; 128000
AB4-9 (antibody, V domains shown, humanized) VH: QVQLVQSGAEVKKPGASVKMSCKASGYTFTSYTMHWIRQAPGQGLEWIGYINPSSTYTHYIKKFKDRATLTADTSTSTAYMELSSLRSEDTAVYYCSRGELGGFAYWGQGTLVTVSS VL: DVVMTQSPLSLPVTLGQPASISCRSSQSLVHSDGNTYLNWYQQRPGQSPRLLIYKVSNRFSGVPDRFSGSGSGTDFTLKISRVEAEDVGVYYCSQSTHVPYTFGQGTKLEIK; 1780
AB11-3 (antibody, V domains shown, humanized) VH: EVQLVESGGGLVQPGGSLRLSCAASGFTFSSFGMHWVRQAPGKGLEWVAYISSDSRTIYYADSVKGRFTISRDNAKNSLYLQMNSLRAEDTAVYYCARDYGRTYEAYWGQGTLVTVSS VL: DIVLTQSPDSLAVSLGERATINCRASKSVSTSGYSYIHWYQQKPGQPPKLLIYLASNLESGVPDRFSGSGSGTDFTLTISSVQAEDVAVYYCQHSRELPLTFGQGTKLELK; 5520
AB4-8 (antibody, V domains shown, humanized) VH: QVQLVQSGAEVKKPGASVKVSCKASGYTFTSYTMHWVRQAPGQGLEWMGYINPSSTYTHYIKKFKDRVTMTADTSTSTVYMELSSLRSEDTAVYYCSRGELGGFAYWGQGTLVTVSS VL: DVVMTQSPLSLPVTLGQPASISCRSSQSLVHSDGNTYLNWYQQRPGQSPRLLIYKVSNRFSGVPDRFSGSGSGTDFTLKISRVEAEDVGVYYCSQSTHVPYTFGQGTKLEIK; 4700

Briefly, FACS fluorescence measured for AB3-3 (antibody, V domains shown, humanized) VH: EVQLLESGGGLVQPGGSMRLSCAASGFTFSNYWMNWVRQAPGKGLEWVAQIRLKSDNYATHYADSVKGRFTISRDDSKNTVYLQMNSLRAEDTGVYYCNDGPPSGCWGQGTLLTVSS VL: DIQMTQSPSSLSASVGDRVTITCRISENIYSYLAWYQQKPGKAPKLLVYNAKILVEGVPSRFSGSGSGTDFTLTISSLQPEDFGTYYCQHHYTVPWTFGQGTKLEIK : 23000
